From: patent US10261090B2

- assay summary: Ultraviolet-visible and fluorescence spectroscopy of the probes
- Format: physicochemical
- condition parameters: Table 1; 1 μM probe, 0.2 M sodium phosphate buffer pH 7.4, 0.1-1% DMSO
Assign class by Fluorescence peak [nm]: not lower than 700 nm means condition met; lower than 700 nm means condition not met.

Example entries begin here.
COc1ccccc1C1=c2cc3c(cc2[Si](C)(C)c2cc4c(cc21)OCCN4C)=[N+](C)CCO3	condition met
CN(C)c1ccc2c(c1)[Si](C)(C)C1=CC(=[N+](C)C)C=CC1=C2c1ccccc1O	condition not met
Cc1ccccc1C1=C2C=CC(=N)C=C2[Si](C)(C)c2cc(N)ccc21	condition not met
COc1ccccc1C1=C2C=CC(=[N+](C)C)C=C2[Si](C)(C)c2cc(N(C)C)ccc21	condition not met
CN1CCOc2cc3c(cc21)[Si](C)(C)c1cc2c(cc1=C3c1ccccc1O)OCC[N+]=2C	condition met

--- query ---
Reported Fluorescence peak [nm] at or above 700 nm? "CN(C)c1ccc2c(c1)[Si](C)(C)C1=CC(=[N+](C)C)C=CC1=C2c1ccccc1"
condition not met

---

Measured Quantum yield accompanies every entry in the list below.
- assay summary: Ultraviolet-visible and fluorescence spectroscopy of the probes
- Type: physicochemical
- condition parameters: Table 1; 0.2 M sodium phosphate buffer pH 7.4
- Description: Glutathione was reacted with the fluorescent probe 2Me SiR600 (compound 1) synthesized in Example 1, and fluorescence assay was conducted. A Shimadzu UV-2450 (Shimadzu Corporation) and a Hitachi F-7000 (Hitachi, Ltd.) were used in ultraviolet-visible spectroscopy and fluorescence spectroscopy. […] The absorption spectrum and fluorescence spectrum were measured when various concentration of glutathione was added in the range of 1 μM-100 mM. […]
Reply briefly: the number, and no unit.

Field: example entries. Status: answers known.
Cc1ccccc1C1=C2C=CC(=N)C=C2[Si](C)(C)c2cc(N)ccc21	0.38
CN(C)c1ccc2c(c1)[Si](C)(C)C1=CC(=[N+](C)C)C=CC1=C2c1ccccc1O	0.31
COc1ccccc1C1=c2cc3c(cc2[Si](C)(C)c2cc4c(cc21)OCCN4C)=[N+](C)CCO3	0.08
COc1ccccc1C1=C2C=CC(=[N+](C)C)C=C2[Si](C)(C)c2cc(N(C)C)ccc21	0.37
CN1CCOc2cc3c(cc21)[Si](C)(C)c1cc2c(cc1=C3c1ccccc1O)OCC[N+]=2C	0.07
CN(C)c1ccc2c(c1)[Si](C)(C)C1=CC(=[N+](C)C)C=CC1=C2c1ccccc1	0.14

Quick check: Quantum yield of "CN(C)c1ccc2c(c1)[Si](C)(C)C1=CC(=[N+](C)C)C=CC1=C2c1ccccc1C#N" ?
0.25

---

- assay summary: Ultraviolet-visible and fluorescence spectroscopy of the probes
- Assay type: physicochemical
- condition parameters: Table 2; same conditions as Example 2
Measured Fluorescence quantum yield accompanies every entry in the list below.

Field: example entries. Status: answers known.
Cc1ccccc1C1=c2cc3c(cc2[Si](C)(C)c2cc4c(cc21)OCCN4C)=[N+](C)CCO3 [Compound 27]	0.06
CN(C)c1ccc2c(c1)[Si](C)(C)C1=CC(=[N+](C)C)C=CC1=C2c1ccccc1Cl [Compound 23]	0.30
CN(C)c1ccc2c(c1)[Si](C)(C)C1=CC(=[N+](C)C)C=CC1=C2c1ccccc1F [Compound 18]	0.19
Cc1ccccc1C1=C2C=CC(=[N+](C)C)C=C2[Si](C)(C)c2cc(N)ccc21 [Compound 26]	0.14

Quick check: Fluorescence quantum yield of CN=C1C=CC2=C(c3ccccc3OC)c3ccc(NC)cc3[Si](C)(C)C2=C1.O=C(O)C(F)(F)F [Compound 16] ?
0.34

Quick check: Fluorescence quantum yield of CN(C)c1ccc2c(c1)[Si](C)(C)C1=CC(=[N+](C)C)C=CC1=C2c1ccc(C(F)(F)F)cc1 [Compound 22] ?
0.16
